target_entity: T1, recombinant Fc-TrkB antigen (human) (human, UniProt Q16620 32-430, limits assumed)
T1 construct: Biotinylated for the ForteBio assays; also called Fc-hTrkB; human Fc-TrkB; not shown: Fc part
assay_explanation: BLI (ForteBio Octet), biotinylated Fc-TrkB on streptavidin sensors, Fab at 1E-7 M
measurement_name: pKd
pKd is a log-scale quantity: -log10 of the concentration expressed in molar.

Request: Which measured pKd value corresponds to Fab TR135-8 (Fab, V domains shown, Fab with human V-segments, expressed in E. coli; detected with anti-human kappa) VH: QVQLVQSGAEVKKPGASVKVSCKASGYTFTAYDMHWVRQAPGQGLEWMGWIDPNSGGTRYAQKFQGRVTMTRDTSISTAYMELSRLTSDDTAVYYCTGVTTWFAYWGQGTLVTVSS VL: MDVVMTQSPLSLPVTLGQPASISCRSSQSLVHSNGNTYLNWYQQKPGQPPRLLIYKISNRFSGVPDRFSGSGAGTDFTLKISRVEAEDVGVYYCMQGTHEPYTFGQGKLEIK ?
Result: 7.49

Request: Which measured pKd value corresponds to Fab TR151-1 (Fab, V domains shown, Fab with human V-segments, expressed in E. coli) VH: QVQLVQSGAEVKKPGASVKVSCKASGYTFTAYDMHWVRQAPGQGLEWMGWIDPNSGGTRYAQKFQGRVTMTRDTSISTAYMELSRLTSDDTAVYYCAGVTSWFAYWGQGTLVTVSS VL: MDVVMTQSPLSLPVTLGQPASISCRSSQSLVHSNGNTYLSWLQQRPGQPPRLLIYKISNRFSGVPDRFSGSGAGTDFTLKISRVEAEDVGVYYCMQGTHEPYTFGQGKLEIK ?
Result: 7.73

Request: Which measured pKd value corresponds to Fab TR144-1 (Fab, V domains shown, Fab with human V-segments, expressed in E. coli) VH: QVQLVQSGAEVKKPGASVKVSCKASGYTFTAYDMHWVRQAPGQGLEWMGWIDPRSGDTSYKQKFQGRVTMTRDTSISTAYMELHRLRSDDTAVYYCTGVTTWFAYWGQGTLVTVSS VL: MDVVMTQSPLSLPVTLGQPASISCRSSQSLVHSNGNTYLNWYQQKPGQPPRLLIYKISNRFSGVPDRFSGSGAGTDFTLKISRVEAEDVGVYYCMQGTHEPYTFGQGKLEIK ?
Result: 7.51

Request: Which measured pKd value corresponds to Fab TR139-2 (Fab, V domains shown, Fab with human V-segments, expressed in E. coli) VH: QVQLVQSGAEVKKPGASVKVSCKASGYTFTAYDMHWVRQAPGQGLEWMGWIDPNSGGTRYAQKFQGRVTMTRDTSISTAYMELSRLTSDDTAVYYCTGVTTWFAYWGQGTLVTVSS VL: MDVVMTQSPLSLPVTLGQPASISCRSSQSLVHSNGNTYLSWLQQRPGQPPRLLIYKISNRFSGVPDRFSGSGAGTDFTLKISRVEAEDVGVYYCMQGTHEPYTFGQGKLEIK ?
Result: 7.82
